B1: TPR 5TU (parent)
chain: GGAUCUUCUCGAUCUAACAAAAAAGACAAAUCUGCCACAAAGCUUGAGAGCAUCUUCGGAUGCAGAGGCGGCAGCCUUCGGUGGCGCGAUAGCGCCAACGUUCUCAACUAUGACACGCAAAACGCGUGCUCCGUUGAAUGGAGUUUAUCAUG

Variants of: B1
experiment-notes: polymerase ribozyme fitness, log enrichment relative to wild type (log ratio); higher = more active; in vitro selection for triplet polymerase activity
Variants at the floor of the assay were thinned out.
result-type: polymerase ribozyme fitness (log ratio)
# respond with the number and nothing more

The cases that follow already have their polymerase ribozyme fitness (log ratio) on record.
{"mutation-id": "C51U A89G A97G G143U", "polymerase ribozyme fitness (log ratio)": -3.43}
{"mutation-id": "G50C A122C G143A", "polymerase ribozyme fitness (log ratio)": -4.06}
{"mutation-id": "C69G C93G", "polymerase ribozyme fitness (log ratio)": -3.97}
{"mutation-id": "C99A G136A", "polymerase ribozyme fitness (log ratio)": -0.217}
{"mutation-id": "U61G A122C", "polymerase ribozyme fitness (log ratio)": -1.51}

# input Param item = C27G C51U ; retrieve measured polymerase ribozyme fitness (log ratio).
# output -3.97

# input Param item = A24U U53A C57A C95A C123G ; retrieve measured polymerase ribozyme fitness (log ratio).
# output 0.167

# input Param item = C38U A39C U61G G124C ; retrieve measured polymerase ribozyme fitness (log ratio).
# output -3.96

# input Param item = A41C A60G G92A A106U ; retrieve measured polymerase ribozyme fitness (log ratio).
# output -3.98

# input Param item = C18U A41G C51U A115C G140U ; retrieve measured polymerase ribozyme fitness (log ratio).
# output -3.82

# input Param item = U56A A115G G124C ; retrieve measured polymerase ribozyme fitness (log ratio).
# output -1.61

# input Param item = C57A A89G C95U A119U A120U C125U ; retrieve measured polymerase ribozyme fitness (log ratio).
# output -1.54

# input Param item = G25A G34U C35G C85G ; retrieve measured polymerase ribozyme fitness (log ratio).
# output -4.2
